SYSTEM_TESTED: CGRP antigen
PROTOCOL: cell-based or functional assay
QUANTITY_NAME: IC50 (µg/mL)
Field format: number, assumed µg/mL, no unit text.

{"BINDER": "hu222 (antibody, V domains shown, 3C1 HC-1/3C1 LC-1) VH: QVQLVQSGAEVKKPGASVKVSCKASGYSFTGYTMNWVRQAPGQRLEWMGLINPYIGNTHYNQKFKDRVTFTVDRSSSTAYMELSSLRSEDTAVYYCARELDSGFDYWGQGTLVTVSS VL: DVVMTQSPLSLPVTLGQPASISCRSSQNIVHSNGDTYLEWYQQRPGQSPRLLIYKVSNRFSGVPDRFSGSGSGTDFTLKISRVEAEDVGVYYCYQGSHVPWTFGQGTKLEIK", "IC50 [µg/mL]": 0.039}
{"BINDER": "hu167 (antibody, V domains shown, 3E5 HC-2/3E5 LC-1) VH: QVQLVQSGAEVKKPGASVKVSCKASGYTFTDYNMHWVRQAPGQRLEWMGYISPYNGGTAYNQKFKFRVTLTVDTSSSTAYMELSSLRSEDTAVYYCAREGLGGYWGQGTLVTVSS VL: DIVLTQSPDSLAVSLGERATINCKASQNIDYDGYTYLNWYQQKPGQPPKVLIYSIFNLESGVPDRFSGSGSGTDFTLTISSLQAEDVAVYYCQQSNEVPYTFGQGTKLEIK", "IC50 [µg/mL]": 0.125}
{"BINDER": "hu71 (antibody, V domains shown, 1F5 HC-4/1F5 LC1-2) VH: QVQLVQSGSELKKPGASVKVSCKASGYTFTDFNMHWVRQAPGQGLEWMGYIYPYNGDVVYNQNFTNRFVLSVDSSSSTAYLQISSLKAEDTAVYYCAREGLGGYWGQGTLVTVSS VL: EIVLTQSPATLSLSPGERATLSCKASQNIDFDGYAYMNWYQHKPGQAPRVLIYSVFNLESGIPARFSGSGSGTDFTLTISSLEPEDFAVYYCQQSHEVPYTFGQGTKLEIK", "IC50 [µg/mL]": 0.0404}
{"BINDER": "hu128 (antibody, V domains shown, 2B8 HC1-2/3E5 LC-1) VH: QVQLVQSGAEVKKPGASVKVSCKASGYTFTDYNMHWVRQAPGQGLEWMGNIYPYNGGTVYNQKFNNRVTLTVDTSSSTAYMELRSLRSDDTAVYYCAREGLGGYWGQGTLVTVSS VL: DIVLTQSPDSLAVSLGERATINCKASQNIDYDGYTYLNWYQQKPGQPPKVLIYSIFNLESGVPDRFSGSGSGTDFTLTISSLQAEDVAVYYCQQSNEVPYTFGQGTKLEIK", "IC50 [µg/mL]": 0.109}

Below: the item to evaluate.
In one line, give reported IC50 of the entry hu226 (antibody, V domains shown, 3C1 HC-2/3C1 LC-1) VH: QVQLVQSGAEVKKPGASVKVSCKASGYTFTGYTMNWVRQAPGQRLEWMGLINPYIGNTHYNQKFKDRVTFTVDRSSSTAYMELSSLRSEDTAVYYCARELDSGFDYWGQGTLVTVSS VL: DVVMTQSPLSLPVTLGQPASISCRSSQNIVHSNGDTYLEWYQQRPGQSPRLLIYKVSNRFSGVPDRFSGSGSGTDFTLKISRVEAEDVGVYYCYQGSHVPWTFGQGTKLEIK .
0.0446

Source: patent US20260125454A1
